Kindly supply the reported T½ values for the records listed here.
# Study system: Human BCMA (human) (UniProt Q02223)
# Procedure summary: SPR, IgG immobilised, huBCMA analyte, 37 C
One number for each entry, in min.

Below are 6 binders. Give each one its T½.
1. L3.PY/L3.KF/H3.AE (antibody, V domains shown, IgG) VH: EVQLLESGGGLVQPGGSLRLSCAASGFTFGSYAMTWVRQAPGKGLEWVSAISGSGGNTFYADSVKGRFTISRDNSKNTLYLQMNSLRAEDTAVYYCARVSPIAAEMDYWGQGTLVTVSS VL: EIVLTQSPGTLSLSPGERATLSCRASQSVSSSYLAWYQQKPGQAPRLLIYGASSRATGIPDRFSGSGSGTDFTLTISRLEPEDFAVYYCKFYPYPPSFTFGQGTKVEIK
2. L3.PY/L3.KY/H2.LT (antibody, V domains shown, IgG) VH: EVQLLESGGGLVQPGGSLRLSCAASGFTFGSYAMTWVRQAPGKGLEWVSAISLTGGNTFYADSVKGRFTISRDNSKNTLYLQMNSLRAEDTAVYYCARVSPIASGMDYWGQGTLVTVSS VL: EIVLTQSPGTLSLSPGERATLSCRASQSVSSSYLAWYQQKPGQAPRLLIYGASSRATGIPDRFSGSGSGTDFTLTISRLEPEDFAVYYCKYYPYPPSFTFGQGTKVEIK
3. L3.PY/L1.FF/H2.YQ (antibody, V domains shown, IgG) VH: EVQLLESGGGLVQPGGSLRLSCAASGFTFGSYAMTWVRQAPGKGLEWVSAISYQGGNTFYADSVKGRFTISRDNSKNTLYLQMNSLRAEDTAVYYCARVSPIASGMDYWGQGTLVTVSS VL: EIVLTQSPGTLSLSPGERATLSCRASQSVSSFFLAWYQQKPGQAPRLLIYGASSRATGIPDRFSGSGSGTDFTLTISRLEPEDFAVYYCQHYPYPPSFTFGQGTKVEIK
4. L3.PY/L1.FF/H2.LT (antibody, V domains shown, IgG) VH: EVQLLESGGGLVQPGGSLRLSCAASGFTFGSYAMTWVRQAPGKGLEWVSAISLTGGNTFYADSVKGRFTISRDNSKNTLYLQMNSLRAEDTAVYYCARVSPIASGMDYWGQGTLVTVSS VL: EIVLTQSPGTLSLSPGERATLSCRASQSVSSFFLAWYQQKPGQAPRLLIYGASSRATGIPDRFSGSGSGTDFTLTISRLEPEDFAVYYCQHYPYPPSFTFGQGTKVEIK
5. L3.PY/L1.FF/H2.QL (antibody, V domains shown, IgG) VH: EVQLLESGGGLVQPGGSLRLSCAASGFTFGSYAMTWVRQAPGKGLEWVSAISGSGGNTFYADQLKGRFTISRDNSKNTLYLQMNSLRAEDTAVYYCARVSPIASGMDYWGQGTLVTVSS VL: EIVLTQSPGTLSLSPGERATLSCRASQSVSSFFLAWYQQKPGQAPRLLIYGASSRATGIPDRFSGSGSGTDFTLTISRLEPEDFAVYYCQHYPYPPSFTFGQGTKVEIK
6. L3.PY/L1.PH/H3.AQ (antibody, V domains shown, IgG) VH: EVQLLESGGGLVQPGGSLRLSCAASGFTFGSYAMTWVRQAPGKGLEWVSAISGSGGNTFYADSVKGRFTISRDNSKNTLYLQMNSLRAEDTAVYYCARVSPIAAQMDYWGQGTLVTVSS VL: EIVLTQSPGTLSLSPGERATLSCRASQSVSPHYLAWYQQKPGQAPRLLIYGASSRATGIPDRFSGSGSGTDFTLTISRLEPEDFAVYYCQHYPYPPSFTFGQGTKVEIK

[7.44, 12.8, 7.61, 6.92, 8.28, 7.27]

Below are 3 binders. Give each one its T½.
1. L3.PY/L1.PH/H3.AE (antibody, V domains shown, IgG) VH: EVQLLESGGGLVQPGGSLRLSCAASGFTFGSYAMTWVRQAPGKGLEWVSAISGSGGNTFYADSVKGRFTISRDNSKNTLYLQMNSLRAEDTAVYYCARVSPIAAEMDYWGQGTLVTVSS VL: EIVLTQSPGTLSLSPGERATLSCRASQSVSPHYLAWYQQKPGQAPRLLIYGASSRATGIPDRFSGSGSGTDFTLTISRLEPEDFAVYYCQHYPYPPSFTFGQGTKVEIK
2. L3.PY/L3.KF/H2.LT (antibody, V domains shown, IgG) VH: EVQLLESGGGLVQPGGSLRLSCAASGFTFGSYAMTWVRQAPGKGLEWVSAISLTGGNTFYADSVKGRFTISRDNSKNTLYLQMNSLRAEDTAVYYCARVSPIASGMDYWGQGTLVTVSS VL: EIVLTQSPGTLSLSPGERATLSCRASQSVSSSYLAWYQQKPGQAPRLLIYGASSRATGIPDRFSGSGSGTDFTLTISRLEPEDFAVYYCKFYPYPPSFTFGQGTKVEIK
3. L3.PY/L3.KF/H3.YA (antibody, V domains shown, IgG) VH: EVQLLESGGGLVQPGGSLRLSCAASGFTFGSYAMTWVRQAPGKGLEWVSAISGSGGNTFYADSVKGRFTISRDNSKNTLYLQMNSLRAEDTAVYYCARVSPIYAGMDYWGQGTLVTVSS VL: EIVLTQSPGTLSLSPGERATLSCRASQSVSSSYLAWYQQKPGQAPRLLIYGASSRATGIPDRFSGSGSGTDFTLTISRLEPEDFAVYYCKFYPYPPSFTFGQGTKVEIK

[8.61, 6.05, 7.85]

For L3.PY/L3.KY/H2.HA (antibody, V domains shown, IgG) VH: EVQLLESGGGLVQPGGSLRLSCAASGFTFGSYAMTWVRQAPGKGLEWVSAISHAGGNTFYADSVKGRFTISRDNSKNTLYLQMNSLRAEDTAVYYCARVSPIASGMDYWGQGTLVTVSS VL: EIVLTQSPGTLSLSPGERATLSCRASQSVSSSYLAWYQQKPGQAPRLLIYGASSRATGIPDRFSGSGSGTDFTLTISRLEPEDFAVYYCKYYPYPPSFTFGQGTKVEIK , what is its reported T½?
7.1
